target: recombinant M^Pro (Severe acute respiratory syndrome coronavirus 2, UniProt P0DTD1); assay: SARS-CoV-2 Mpro screening and IC50 determination (QS1 fluorogenic substrate, Drag assay); type: biochemical; conditions: recombinant M^Pro, 20 μM QS1 (Ac-Abu-Tle-Leu-Gln-ACC) substrate; Table 1; read-out: M^Pro IC50
// NB: equality with 800 nM counts as false; only IC50 strictly below is true

{"columns": ["molecule", "answer-label"],
 "data": [
  ["CC(C)C[C@H](NC(=O)c1ccc(-c2cncc(Cl)c2)cc1)C(=O)N[C@H](C#N)C[C@@H]1CCNC1=O", "false"],
  ["COc1ccccc1-c1ccc(C(=O)N[C@@H](CC(C)C)C(=O)N[C@H](C#N)C[C@@H]2CCNC2=O)cc1", "false"],
  ["COc1ccc(-c2ccc(C(=O)N[C@@H](CC(C)C)C(=O)N[C@H](C#N)C[C@@H]3CCNC3=O)cc2)cn1", "false"],
  ["CC(C)C[C@H](NC(=O)c1ccc(-c2ccc(Cl)cc2)cc1)C(=O)N[C@H](C#N)C[C@@H]1CCNC1=O", "true"],
  ["CC(C)C[C@H](NC(=O)c1ccc(-c2ccc3cnn(C)c3c2)cc1)C(=O)N[C@H](C#N)C[C@@H]1CCNC1=O", "true"],
  ["CCC[C@H](NC(=O)c1ccc(-c2cccc(OCC)c2)cc1)C(=O)N[C@H](C#N)C[C@@H]1CCNC1=O [12i]", "false"],
  ["CCC[C@H](NC(=O)c1ccc(-c2ccc(OC)cc2)cc1)C(=O)N[C@H](C#N)C[C@@H]1CCNC1=O [12f]", "false"],
  ["COc1ccc(-c2ccc(C(=O)N[C@@H](CC(C)C)C(=O)N[C@H](C#N)C[C@@H]3CCNC3=O)cc2)cc1", "true"],
  ["COc1ccc(-c2ccc(C(=O)N[C@@H](CC3CCCCC3)C(=O)N[C@H](C#N)C[C@@H]3CCNC3=O)cc2)cc1OC [12m]", "false"],
  ["CCOc1ccc(-c2ccc(C(=O)N[C@@H](CC(C)C)C(=O)N[C@H](C#N)C[C@@H]3CCNC3=O)cc2)cc1", "true"],
  ["N#C[C@H](C[C@@H]1CCNC1=O)NC(=O)[C@H](CC1CCCCC1)NC(=O)c1ccc(-c2cncc(Cl)c2)cc1 [12o]", "false"],
  ["CC(C)C[C@@H](NC(=O)c1ccc(-c2ccc(F)cc2)cc1)C(=O)N[C@H](C#N)C[C@@H]1CCNC1=O [12b]", "false"],
  ["Cn1cc2c(-c3ccc(C(=O)N[C@@H](CC4CCCCC4)C(=O)N[C@H](C#N)C[C@@H]4CCNC4=O)cc3)cccc2n1 [12n]", "false"],
  ["CCC[C@H](NC(=O)c1ccc(-c2cccc(OC)c2)cc1)C(=O)N[C@H](C#N)C[C@@H]1CCNC1=O [12e]", "false"]
]}

====

Entries annotated with measured IC50
biological target: Human Recombinant Cathepsin S (Homo sapiens, UniProt P25774); test: Cathepsin selectivity screening, Cat S (Z-Val-Val-Arg-AMC); format: biochemical; conditions: Z-Val-Val-Arg-AMC substrate; Table 5; read-out: IC50 (μM) CatS
Sequence (P25774 115-331): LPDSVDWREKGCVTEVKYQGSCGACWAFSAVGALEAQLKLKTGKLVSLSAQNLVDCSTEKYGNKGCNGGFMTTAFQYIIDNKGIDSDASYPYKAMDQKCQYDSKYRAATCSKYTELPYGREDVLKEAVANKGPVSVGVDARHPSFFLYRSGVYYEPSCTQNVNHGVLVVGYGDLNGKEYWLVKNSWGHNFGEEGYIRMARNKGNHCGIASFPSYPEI
endpoint: IC50

{"columns": ["compound", "endpoint", "reported-measurement"],
 "data": [
  ["COc1cccc(-c2ccc(C(=O)N[C@@H](CC3CCCCC3)C(=O)N[C@H](C#N)C[C@@H]3CCNC3=O)cc2)c1 [12k]", "IC50", "0.011 µM"],
  ["COc1cccc(-c2ccc(C(=O)N[C@@H](CC3CCCCC3)C(=O)N[C@H](C#N)C[C@@H]3CCNC3=O)c(F)c2)c1 [23b]", "IC50", "0.059 µM"],
  ["COc1ccc(-c2ccc(C(=O)N3C[C@H]4[C@@H]([C@H]3C(=O)N[C@H](C#N)C[C@@H]3CCNC3=O)C4(C)C)c(Cl)c2)cc1 [22e]", "IC50", "1.03 µM"],
  ["COc1cccc(-c2ccc(C(=O)N[C@@H](CC3CCCCC3)C(=O)N[C@H](C#N)C[C@@H]3CCNC3=O)c(Cl)c2)c1 [23d]", "IC50", "0.011 µM"]
]}

====

biological target: recombinant M^Pro (Severe acute respiratory syndrome coronavirus 2); test: SARS-CoV-2 Mpro screening and IC50 determination (QS1 fluorogenic substrate, Drag assay); format: biochemical; conditions: read-out: M^Pro (%inh)@10μM
Entries annotated with measured inhibition at 10 µM

{"columns": ["molecule", "inhibition at 10 µM"],
 "data": [
  ["CCOc1ccc(-c2ccc(C(=O)N[C@@H](CC(C)C)C(=O)N[C@H](C#N)C[C@@H]3CCNC3=O)cc2)cc1", "> 95%"],
  ["COc1ccc(-c2ccc(C(=O)N[C@@H](CC3CCCCC3)C(=O)N[C@H](C#N)C[C@@H]3CCNC3=O)cc2)cc1OC [12m]", "< 95%"],
  ["CC(C)C[C@@H](NC(=O)c1ccc(-c2ccc(Cl)cc2)cc1)C(=O)N[C@H](C#N)C[C@@H]1CCNC1=O [12a]", "> 95%"],
  ["COc1cccc(-c2ccc(C(=O)N[C@@H](CC(C)C)C(=O)N[C@H](C#N)C[C@@H]3CCNC3=O)cc2)c1", "> 95%"],
  ["CCCC(NC(=O)c1ccc(Br)cc1)C(=O)NC(C#N)CC1CCNC1=O (stereo not drawn) [11c]", "< 95%"],
  ["CC(C)C[C@H](NC(=O)c1ccc(-c2cncc(Cl)c2)cc1)C(=O)N[C@H](C#N)C[C@@H]1CCNC1=O", "> 95%"],
  ["CCC[C@H](NC(=O)c1ccc(-c2ccc(OC)nc2)cc1)C(=O)N[C@H](C#N)C[C@@H]1CCNC1=O [12j]", "< 95%"],
  ["CC(C)C[C@@H](NC(=O)c1ccc(Br)cc1)C(=O)N[C@H](C#N)C[C@@H]1CCNC1=O [11b]", "< 95%"],
  ["CCC[C@H](NC(=O)c1ccc(-c2ccccc2OC)cc1)C(=O)N[C@H](C#N)C[C@@H]1CCNC1=O [12d]", "< 95%"],
  ["N#C[C@H](C[C@@H]1CCNC1=O)NC(=O)[C@H](CC1CCCCC1)NC(=O)c1ccc(-c2cncc(Cl)c2)cc1 [12o]", "< 95%"],
  ["COc1ccc(-c2ccc(C(=O)N[C@@H](CC(C)C)C(=O)N[C@H](C#N)C[C@@H]3CCNC3=O)cc2)cc1", "> 95%"],
  ["CCOc1cccc(-c2ccc(C(=O)N[C@@H](CC(C)C)C(=O)N[C@H](C#N)C[C@@H]3CCNC3=O)cc2)c1", "> 95%"],
  ["COc1ccc(-c2ccc(C(=O)NC3(C(=O)N[C@H](C#N)C[C@@H]4CCNC4=O)CCCCC3)cc2)cc1 [12p]", "> 95%"],
  ["CCC[C@H](NC(=O)c1ccc(-c2ccc(OC)cc2)cc1)C(=O)N[C@H](C#N)C[C@@H]1CCNC1=O [12f]", "> 95%"],
  ["CC(C)C[C@H](NC(=O)c1ccc(-c2cccc3nn(C)cc23)cc1)C(=O)N[C@H](C#N)C[C@@H]1CCNC1=O", "> 95%"]
]}

====

biological target: Human Recombinant Cathepsin B (Homo sapiens, UniProt P07858); test: Cathepsin selectivity screening, Cat B (Z-Phe-Arg-AMC); format: biochemical; conditions: Z-Phe-Arg-AMC substrate; Table 5; read-out: IC50 (μM) CatB
endpoint: IC50

{"columns": ["compound", "measurement-target", "reported-measurement"],
 "data": [
  ["COc1ccc(-c2ccc(C(=O)N[C@@H](CC3CCCCC3)C(=O)N[C@H](C#N)C[C@@H]3CCNC3=O)c(F)c2)cc1 [23a]", "Human Recombinant Cathepsin B (Homo sapiens, UniProt P07858)", "> 10 µM"],
  ["COc1cccc(-c2ccc(C(=O)N3C[C@H]4[C@@H]([C@H]3C(=O)N[C@H](C#N)C[C@@H]3CCNC3=O)C4(C)C)c(Cl)c2)c1 [22f]", "Human Recombinant Cathepsin B (Homo sapiens, UniProt P07858)", "> 10 µM"],
  ["COc1cccc(-c2ccc(C(=O)N3C[C@@H]4CCC[C@@H]4[C@H]3C(=O)N[C@H](C#N)C[C@@H]3CCNC3=O)c(Cl)c2)c1 [22l]", "Human Recombinant Cathepsin B (Homo sapiens, UniProt P07858)", "> 10 µM"]
]}

====

Entries annotated with measured IC50
molecular target: Human Recombinant Cathepsin S (Homo sapiens, UniProt P25774); assay: Cathepsin selectivity screening, Cat S (Z-Val-Val-Arg-AMC); type: biochemical; settings: Z-Val-Val-Arg-AMC substrate; Table 5; read-out: IC50 (μM) CatS

{"columns": ["molecule", "IC50 (µM)"],
 "data": [
  ["COc1cccc(-c2ccc(C(=O)N3C[C@H]4[C@@H]([C@H]3C(=O)N[C@H](C#N)C[C@@H]3CCNC3=O)C4(C)C)c(Cl)c2)c1 [22f]", 1.29],
  ["COc1ccc(-c2ccc(C(=O)N[C@@H](CC3CCCCC3)C(=O)N[C@H](C#N)C[C@@H]3CCNC3=O)c(F)c2)cc1 [23a]", 0.016],
  ["COc1ccc(-c2ccc(C(=O)N[C@@H](CC3CCCCC3)C(=O)N[C@H](C#N)C[C@@H]3CCNC3=O)c(Cl)c2)cc1 [23c]", 0.011],
  ["COc1ccc(-c2ccc(C(=O)N3C[C@@H]4CCC[C@@H]4[C@H]3C(=O)N[C@H](C#N)C[C@@H]3CCNC3=O)c(Cl)c2)cc1 [22k]", 0.718],
  ["COc1ccc(-c2ccc(C(=O)N[C@@H](CC3CCCCC3)C(=O)N[C@H](C#N)C[C@@H]3CCNC3=O)cc2)cc1 [12l]", 0.006],
  ["COc1cccc(-c2ccc(C(=O)N[C@@H](CC(C)C)C(=O)N[C@H](C#N)C[C@@H]3CCNC3=O)c(Cl)c2)c1 [18n]", 0.015],
  ["COc1cccc(-c2ccc(C(=O)N3C[C@@H]4CCC[C@@H]4[C@H]3C(=O)N[C@H](C#N)C[C@@H]3CCNC3=O)c(Cl)c2)c1 [22l]", 0.538]
]}
